# Tested on: Raji
# procedure text: Cytotoxicity against human Raji cells expressing EBV-EA assessed as inhibition of TPA-induced EBV-EA activation after 48 hrs by trypan blue staining based immunofluorescence method relative to TPA
# Assay type: functional, cell-based
quantity kind: IC50 (molar ratio)
Report the figure in molar ratio without appending any unit label.

Enquiry: Answer with the recorded IC50 for the molecule listed here: "COc1ccc(/C=C/C(C)=O)cc1OC"
Return: 107

Enquiry: Answer with the recorded IC50 for the molecule listed here: "COc1cccc(/C=C/C(C)=O)c1O"
Return: 50

Enquiry: Answer with the recorded IC50 for the molecule listed here: "CC(=O)CCc1ccccc1"
Return: 222

Enquiry: Answer with the recorded IC50 for the molecule listed here: COc1cc(/C=C/C(C)=O)ccc1O [DEHYDROZINGERONE]
Return: 95

Enquiry: Answer with the recorded IC50 for the molecule listed here: "COc1cc(/C=C/C(=O)CC(=O)/C=C/c2ccc(O)c(OC)c2)ccc1O"
Return: 97

Enquiry: Answer with the recorded IC50 for the molecule listed here: "CC(=O)C#Cc1ccccc1"
Return: 48

* * *

# procedure text: Antioxidant activity assessed as DPPH radical scavenging activity incubated for 20 mins by spectrophotometry analysis
# Type: physicochemical
quantity kind: pIC50
Expect pIC50 as a plain number equal to -log10 of the molar concentration.

Enquiry: Answer with the recorded pIC50 for the compound listed here: COc1cc(/C=C/C(C)=O)ccc1OC1OC(COC(C)=O)C(OC(C)=O)C(OC(C)=O)C1OC(C)=O (stereo unspecified)
Return: 2.00

Enquiry: Answer with the recorded pIC50 for the compound listed here: COc1cc(/C=C/C(C)=O)ccc1O [DEHYDROZINGERONE]
Return: 3.52

Enquiry: Answer with the recorded pIC50 for the compound listed here: Cc1c(C)c2c(c(C)c1O)CCC(C)(C(=O)O)O2 (stereo unspecified) [TROLOX]
Return: 3.59

Enquiry: Answer with the recorded pIC50 for the compound listed here: "COc1ccc(/C=C/C(C)=O)cc1OC"
Return: 1.70

Enquiry: Answer with the recorded pIC50 for the compound listed here: "COc1cc(/C=C/C(C)=O)ccc1OC(C)=O"
Return: 1.40

Enquiry: Answer with the recorded pIC50 for the compound listed here: COc1cc(/C=C/C(C)=O)ccc1OC1OC(CO)C(O)C(O)C1O (stereo unspecified)
Return: 2.12

* * *

# Tested on: Brain
# procedure text: Antioxidant activity in Wistar rat brain homogenate assessed as inhibition of Fe(II)-induced lipid peroxidation
# Format: functional, tissue-based
# condition details: Rattus norvegicus, Wistar, Brain
quantity kind: IC50 (µM)
Report the figure in µM without appending any unit label.

Enquiry: Answer with the recorded IC50 for the molecule listed here: "CC(=O)/C=C/c1cccc(O)c1O"
Return: 6.3
